# Test system: MALME-3M melanoma
# methodSummary: NCI-60 one-dose screen, 48 h
# statedConditions: 10 µM unless noted
Compounds without any hit were thinned out: in the full panel of roughly 83,000, 20% have a hit. Active and inactive are the calls of the source. The calls were made as follows: active = growth percent below 10; inactive = the rest.
Classes used: yes (1) (active), no (0) (inactive)

[[record]]
molecule = "O=C(Nc1cc(Br)ccn1)c1cc2cc(Nc3nc(-c4ccccc4)nc4ccccc34)ccc2oc1=O"
class = "no (0)"

[[record]]
molecule = "CCOC(=O)/C=C1\\SC(=Nc2ccc(C#N)cc2)N(CCN2C(=O)/C(=C/C(=O)OCC)SC2=Nc2ccc(C#N)cc2)C1=O"
class = "no (0)"

[[record]]
molecule = "COC(=O)c1ccc2c(c1)n(Cc1ccc3ccccc3c1)c[n+]2Cc1ccc2ccccc2c1"
class = "yes (1)"

[[record]]
molecule = "C#CC[C@@H]1C[C@]2(C)[C@H]3CC[C@@H]4[C@H]5[C@H](C(=C)C)CC[C@]5(C(=O)O)CC[C@@]4(C)[C@]3(C)CC[C@H]2C(C)(C)[C@H]1O"
class = "no (0)"

[[record]]
molecule = "c1ccc(Sc2ncccn2)nc1"
class = "no (0)"

[[record]]
molecule = "Nc1ccccc1NS(=O)(=O)c1ccc(Cl)cc1"
class = "no (0)"

[[record]]
molecule = "COC(=O)c1oc2c(C(=O)/C=C/c3ccc(OC)cc3)c(OCCCN3CCCCC3)ccc2c1C"
class = "yes (1)"

[[record]]
molecule = "CCOC(=O)C1CCN(S(=O)(=O)/N=C2/NC(=O)NC2=C(Cl)Cl)CC1"
class = "yes (1)"

[[record]]
molecule = "O=Cc1[nH]c(Sc2ccccc2)c2ccccc12"
class = "no (0)"

[[record]]
molecule = "C=C1C(=O)O[C@H]2[C@H]1CC/C(COC(=O)CCC(=O)OC/C1=C/CC[C@@]3(C)O[C@H]3[C@H]3OC(=O)C(=C)[C@@H]3CC1)=C\\CC[C@@]1(C)O[C@@H]21"
class = "yes (1)"

[[record]]
molecule = "Nc1cc(N)nc(SCC(=O)O)n1"
class = "no (0)"

[[record]]
molecule = "CC(C)(C)c1ccc(O)c(Cc2cc(C(C)(C)C)ccc2O)c1"
class = "no (0)"

[[record]]
molecule = "C=CCn1c(SCC(=O)Nc2ccc(C(=O)/C=C/c3cc(OC)c(OC)c(OC)c3)cc2)nnc1-c1ccc(Cl)cc1"
class = "no (0)"

[[record]]
molecule = "C=C1C(=O)O[C@H]2[C@H]1CC/C(COC(=O)NCC(=O)Nc1ccc(OC)c(C(N)=O)c1O)=C\\CC[C@@]1(C)O[C@@H]21"
class = "no (0)"

[[record]]
molecule = "O=C(O)c1cn(C2CC2)c2cc(N3CCN(Cc4nnc(Nc5ccccc5)o4)CC3)c(F)cc2c1=O"
class = "no (0)"

[[record]]
molecule = "O=C1C(Cl)=C(Nc2ccc3c(c2NC2=C(Cl)C(=O)c4ccccc4C2=O)C(=O)c2ccccc2C3=O)C(=O)c2ccccc21"
class = "yes (1)"

[[record]]
molecule = "NS(=O)(=O)c1ccc(C2C3=C(CCCC3=O)OC3=C2C(=O)c2ccccc2C3=O)cc1 (stereo not drawn)"
class = "yes (1)"

[[record]]
molecule = "COCCOCCOCc1n(Cc2ccc3ccccc3c2)c2ccccc2[n+]1Cc1ccc2ccccc2c1"
class = "yes (1)"

